Target: T1, full-length human GIPR (GenBank NM_000164) with an N-terminal FLAG tag on HEK-293T cells (human), P48546
T1 chain: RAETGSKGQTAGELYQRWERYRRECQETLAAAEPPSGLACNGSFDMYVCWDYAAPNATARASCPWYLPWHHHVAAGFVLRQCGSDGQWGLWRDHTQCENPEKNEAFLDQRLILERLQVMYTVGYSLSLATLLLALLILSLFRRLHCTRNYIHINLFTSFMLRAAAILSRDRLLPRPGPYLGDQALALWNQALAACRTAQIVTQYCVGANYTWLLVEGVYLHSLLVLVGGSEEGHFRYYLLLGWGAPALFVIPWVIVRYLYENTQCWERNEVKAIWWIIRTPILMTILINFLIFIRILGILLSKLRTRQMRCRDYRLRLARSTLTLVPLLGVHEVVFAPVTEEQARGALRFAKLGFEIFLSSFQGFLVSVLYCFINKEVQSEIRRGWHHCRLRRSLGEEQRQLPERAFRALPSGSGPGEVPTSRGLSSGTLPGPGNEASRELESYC
Experiment: cell-based or functional assay
Numbered stars: 1 amine (or outer) side, 2 acyl side, 3 side chain; on linkers, the order of the positions; unused ones are H or OH. Square brackets hold non-standard residues; d marks the D form. Primed or numbered codes have the meaning given here. Side chains are listed from the residue outwards. Ends that are not written are not given here. * marks the point of attachment. C20 diacid = O=C(O)CCCCCCCCCCCCCCCCCCC(=O)*; C18 diacid = O=C(O)CCCCCCCCCCCCCCCCC(=O)*; C16 diacid = O=C(O)CCCCCCCCCCCCCCC(=O)*; γGlu = O=C(O)[C@H](CCC(=O)[*:2])N[*:1]; Iva = CC[C@](C)(N)C(=O)O; PEG3′ = not defined here; Aib = CC(C)(N)C(=O)O
value-type: GIP EC50(pM)
Just the number plus its unit, please.

Provide only the value of recorded GIP EC50(pM) for Y[Aib]EGTFISDYSIALDR[Aib]HQ[Aib]NFVNW[Iva]LAQRPSK([γGlu-γGlu-C18 diacid])GAPPPS (ends and bridges not checked) [Compound No. 549]
0.85 pM

Provide only the value of recorded GIP EC50(pM) for Y[Aib]EGTFISDYSIALDR[Aib]HQ[Aib]NFVNW[Iva]LAQRPSSK([PEG3′-PEG3′-γGlu-Ida])APPPS (ends and bridges not checked) [Compound No. 495]
0.86 pM

Provide only the value of recorded GIP EC50(pM) for Y[Aib]EGTFISDYSIALDR[Aib]HQ[Aib]NFVNW[Iva]LAQRPSSGAPPK([PEG3′-PEG3′-γGlu-C20 diacid])S (ends and bridges not checked) [Compound No. 478]
1.36 pM

Provide only the value of recorded GIP EC50(pM) for Y[Aib]EGTFISDYSIALDR[Aib]HQ[Aib]NFVNW[Iva]LAQRPSSK([PEG3′-PEG3′-γGlu-C16 diacid])APPPS (ends and bridges not checked) [Compound No. 494]
0.5 pM

Provide only the value of recorded GIP EC50(pM) for Y[Aib]EGTFISDYSIALDR[Aib]HQ[Aib]NFVNW[Iva]LAQRPSSGAK([PEG3′-γGlu-C16 diacid])PPS (ends and bridges not checked) [Compound No. 524]
1.29 pM

Provide only the value of recorded GIP EC50(pM) for Y[Aib]EGTFISDYSIALDR[Aib]HQ[Aib]NFVNW[Iva]LAQRPSSGAPPPK([PEG3′-PEG3′-C18 diacid])R (ends and bridges not checked) [Compound No 940]
0.7 pM

Provide only the value of recorded GIP EC50(pM) for Y[Aib]EGTFISDYSIALDR[Aib]HQ[Aib]NFVNW[Iva]LAQRPSSK([PEG3′-γGlu-C18 diacid])APPPS (ends and bridges not checked) [Compound No. 519]
1.26 pM

Provide only the value of recorded GIP EC50(pM) for Y[Aib]EGTFISDYSIALDR[Aib]HQ[Aib]NFVNW[Iva]LAQRPSSGK([Gly-Gly-Gly-Gly-Gly-γGlu-C18 diacid])PPPS (ends and bridges not checked) [Compound No. 451]
0.74 pM
